Measured values drawn from patent US9062041B2 for this set.

TEST TARGET: UniProt:P43116
Sequence (P43116 whole entry): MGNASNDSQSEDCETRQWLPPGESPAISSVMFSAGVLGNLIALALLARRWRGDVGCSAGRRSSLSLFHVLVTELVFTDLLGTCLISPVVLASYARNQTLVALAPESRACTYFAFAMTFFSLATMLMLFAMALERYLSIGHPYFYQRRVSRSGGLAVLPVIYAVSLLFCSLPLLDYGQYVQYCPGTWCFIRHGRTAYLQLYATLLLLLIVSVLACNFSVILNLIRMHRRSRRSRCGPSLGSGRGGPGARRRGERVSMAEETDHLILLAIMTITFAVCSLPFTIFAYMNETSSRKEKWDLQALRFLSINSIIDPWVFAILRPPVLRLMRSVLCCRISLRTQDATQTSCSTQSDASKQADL
EXPERIMENT DESCRIPTION: cAMP antagonism test on the human EP2 receptor (HTRF cAMP detection)
Assay type: cell-based
DETAILS: hEP2 receptor, read-out: Antagonism hEP2 IC50
PARAMETER MEASURED: IC50 (nM)
Expressed in nM, but write only the number.

Use these answered entries as a reference point.
| MOLECULE | TEST TARGET | PARAMETER MEASURED | UNIT SYMBOL | READOUT NUMBER |
| --- | --- | --- | --- | --- |
| Cc1c(C(=O)NCCO)ccc2nn(CC3CCN(C(=O)c4ccc(-c5ccc(F)cc5)cc4)CC3)cc12 [Example 410] | UniProt:P43116 | IC50 | nM | 90.4 |
| Cc1c(C(=O)NCC2CC2)ccc2nn(CC3CCN(C(=O)c4ccc(Oc5ccc(C(F)(F)F)cc5)cc4)CC3)cc12 [Example 406] | UniProt:P43116 | IC50 | nM | 8.19 |
| COCCNC(=O)c1ccc2nn(CC3CN(C(=O)c4ccc(OC(F)(F)F)cc4)C3)cc2c1OC [Example 254] | UniProt:P43116 | IC50 | nM | 55.2 |

The reported value for Cc1c(C(=O)NCC(F)(F)F)ccc2nn(CC3CCN(C(=O)c4ccc(OC(F)(F)F)cc4)CC3)cc12 [Example 73] in terms of IC50 is 77.8
